Overview of recorded apparent KD of MS2 coat protein for various sequences
- Tested on: MS2 coat protein
- ASSAY_NAME: apparent KD of MS2 coat protein; designed switch direction (-1 OFF switch, 1 ON switch): -1; higher = weaker reporter binding
- MEASUREMENT_PARAMETERS: input ligand: FMN 200 uM

| SEQUENCE_CHAIN | UNIT_OF_MEASURE | apparent KD of MS2 coat protein |
| --- | --- | --- |
| GAGUGCUGAGGAUAUACAUGAGGAUCACCCAUGUGCUUCAGCUAGGAGACUAGCUUUGGUAGAAGGCAGUACUC [Mod of lroppy 23 - Jieux - Exclusion 3] (Eterna round: R97, puzzle: Exclusion 3) | nM | 49.4 |
| ACAUUCAGAGGAUAUGCGCAUAGAUAAGACUUUGUUUCUUAACAUGAGGAUCACCCAUGUAGAAGGCUGUACCC [Ex2 #66] (Eterna round: R97, puzzle: Exclusion 2) | nM | 26.6 |
| UAUUCACAUGAGGAUCACCCAUGUCAGGAUAUAGUCGAUAUAUGGAAACAUAUAUCGACUAGAAGGGACUAGCG [Jieuxxlusion 12 - Jieux - Exclusion 1] (Eterna round: R97, puzzle: Exclusion 1) | nM | 64.5 |
| UGUUGUUACGUAGGAUAUUGCCAACAGGCAGUAGGAUAUGCGAAAGCAGAAGGACCGCCAACAGGCGAGAAGGACGGGUUAACA [pwkr exNG2 2xF7 2xFMN.11] (Eterna round: R96, puzzle: Exclusion NG 2) | nM | 286 |
| UCUCUUGGGCAAGGAUAUCCUGCGCGGUUCCGGUUCGUGUCUGUCACAUGAGGAUCACCCAUGUGGGAGAAGGUGCCUGCGGUG [Design 75] (Eterna round: R96, puzzle: Exclusion NG 2) | nM | 32.5 |
